Numbers sourced from ChEMBL document CHEMBL1201862.

# System: ACHN
# ASSAY INFO: NCI tumour cell line growth inhibition, 48 h
Active and inactive are the calls of the source. Cut-off read from the data, not from the text of the source: active = GI50 up to about 1.1 µM and inactive = higher.
Response enum: active, inactive

Cc1ccc2c(O)cc(-c3ccc4ccccc4c3)nc2n1; inactive
CCC1(Br)C(=O)NC(=O)N(C2CC(O)C(CO)O2)C1N=[N+]=[N-] (stereo not drawn); inactive

Exam item: For O=C(Nc1nccs1)NS(=O)(=O)n1cnc2ccccc21 , which call appears in the assay record?
Marked response: inactive

Exam item: For C=C(C)C1CC2(C)C(C)CC(OC(=O)/C(C)=C\C)CC2C(OC(=O)/C(C)=C\C)C1O (stereo not drawn) , which call appears in the assay record?
Marked response: inactive

Exam item: For O=C(CSc1nc2nncc-2c(O)[nH]1)c1ccc(Cl)cc1 , which call appears in the assay record?
Marked response: inactive
